tested on: brains, heart, liver, muscle, and DRG of the NHPs; assay: Maturation of TTM-001 and TTM-002 capsids, NGS enrichment in NHP tissues; assay type: in vivo; settings: NGS fold-enrichment, liver RNA of NHPs, relative to AAV9 control
quantity_kind: Fold Enrichment relative to AAV9, Liver RNA (NHP) (fold)
I only need the number, in fold, no unit after it.

Below are worked cases with known answers.
>  <ordered_residues>
KNINGGGSPHSKAQNQQT

>  <result>
0.000

$$$$
>  <ordered_residues>
KTINGSGSPHSKTKSQQT

>  <result>
0.418

$$$$
>  <ordered_residues>
KTVNGSGSPHSKAPNQHT

>  <result>
0.000

$$$$

INPUT: Report Fold Enrichment relative to AAV9, Liver RNA (NHP) for "KTVNGSGSPHSKARDQQT" please.
OUTPUT: 0.569

INPUT: Report Fold Enrichment relative to AAV9, Liver RNA (NHP) for "KTENVSGSPHSKAQNQQT" please.
OUTPUT: 0.964

INPUT: Report Fold Enrichment relative to AAV9, Liver RNA (NHP) for "KAEHGSGSPHSKAQNQQT" please.
OUTPUT: 0.772

INPUT: Report Fold Enrichment relative to AAV9, Liver RNA (NHP) for "KTEKMSGSPHSKAQNQQT" please.
OUTPUT: 0.000

INPUT: Report Fold Enrichment relative to AAV9, Liver RNA (NHP) for "KTERNSGSPHSKAQNQQT" please.
OUTPUT: 0.000

INPUT: Report Fold Enrichment relative to AAV9, Liver RNA (NHP) for "KTFNASGSPHSKAPNQQT" please.
OUTPUT: 0.215

INPUT: Report Fold Enrichment relative to AAV9, Liver RNA (NHP) for "KTIPIDGSPHSKAQNQQT" please.
OUTPUT: 0.234

INPUT: Report Fold Enrichment relative to AAV9, Liver RNA (NHP) for "KTVNGGGSPHSKAQSQQT" please.
OUTPUT: 0.000

INPUT: Report Fold Enrichment relative to AAV9, Liver RNA (NHP) for "KTEKISGSPHSKAQNQQT" please.
OUTPUT: 0.000

INPUT: Report Fold Enrichment relative to AAV9, Liver RNA (NHP) for "KTCNKSGSPHSKAQNQQT" please.
OUTPUT: 0.283

INPUT: Report Fold Enrichment relative to AAV9, Liver RNA (NHP) for "KTINGSGSPHSKGQNPPT" please.
OUTPUT: 0.000

INPUT: Report Fold Enrichment relative to AAV9, Liver RNA (NHP) for "KTDKVSGSPHSKAQNQQT" please.
OUTPUT: 0.765

INPUT: Report Fold Enrichment relative to AAV9, Liver RNA (NHP) for "KTINGSGSPHSKAQPPAT" please.
OUTPUT: 0.126

INPUT: Report Fold Enrichment relative to AAV9, Liver RNA (NHP) for "KTINGSGSPHSKAQERPT" please.
OUTPUT: 0.810

* * *

tested on: brain; experiment: NGS fold enrichment of synthetic library (passage 3) in BALB/c mice, first cross-species screen; type: in vivo; conditions: synthetic library passage 3, intravenous, RNA NGS, brain of BALB/c mice, relative to wild-type AAV9
We'd kindly ask you to apply these Fold enrichment over AAV9 in the brain of Mice (BALB/c) classes: band 1 = under 0.4 fold, band 2 = from 0.4 fold up to 0.8 fold, band 3 = 0.8 fold and over

>  <ordered_residues>
GSGLRQTSQQNQQT

>  <label_value>
band 2

$$$$
>  <ordered_residues>
GSGQNQQVGSTVRT

>  <label_value>
band 2

$$$$
>  <ordered_residues>
GSGQNQQYAGKILT

>  <label_value>
band 2

$$$$
>  <ordered_residues>
GSGQNQQKQNHGNT

>  <label_value>
band 3

$$$$
>  <ordered_residues>
GRVLHSHAGQNQQT

>  <label_value>
band 3

$$$$
>  <ordered_residues>
GSGFNQRSEQNQQT

>  <label_value>
band 2

$$$$
>  <ordered_residues>
GSITLIPSGQNQQT

>  <label_value>
band 2

$$$$
>  <ordered_residues>
GSGQNQQTAMRSTT

>  <label_value>
band 2

$$$$
>  <ordered_residues>
GSGQGIHSSVNQQT

>  <label_value>
band 2

$$$$
>  <ordered_residues>
GSGMPVILGQNQQT

>  <label_value>
band 1

$$$$

INPUT: Class? Entry: "GSGQVVAHVGNQQT"
OUTPUT: band 1

INPUT: Class? Entry: "GSGQLSVPYDNQQT"
OUTPUT: band 1

INPUT: Class? Entry: "GSGQLSGIGGNQQT"
OUTPUT: band 2

INPUT: Class? Entry: "GSGSPHPSRQNQQT"
OUTPUT: band 3

INPUT: Class? Entry: "GSGQLRSLSTNQQT"
OUTPUT: band 1

* * *

tested on: brain; assay: Matured TTM-001 and TTM-002 variants, NGS enrichment in mouse brain; type: in vivo, mice; conditions: NGS fold-enrichment, mouse brain, relative to AAV9 control
# Fold Enrichment relative to AAV9, Brain (Mouse) annotations
# do not omit the unit; it follows the number

Below are worked cases with known answers.
>  <ordered_residues>
ETINGSGSPHSKAQNLQT

>  <assay_system>
brain

>  <result>
107.216 fold

$$$$
>  <ordered_residues>
KTITGHDSPHKSGQHLQT

>  <assay_system>
brain

>  <result>
4.187 fold

$$$$
>  <ordered_residues>
KNTNGSGSPHSKAQNQQT

>  <assay_system>
brain

>  <result>
89.719 fold

$$$$
>  <ordered_residues>
KTEKSSGSPHSKAQNQQT

>  <assay_system>
brain

>  <result>
100.177 fold

$$$$
>  <ordered_residues>
KTVDGHDSPHKSGQKQQT

>  <assay_system>
brain

>  <result>
7.200 fold

$$$$
>  <ordered_residues>
KTVNGHDSPHKSLQNQQT

>  <assay_system>
brain

>  <result>
16.726 fold

$$$$
>  <ordered_residues>
KTIDGGGSPHSKAQNKQT

>  <assay_system>
brain

>  <result>
55.517 fold

$$$$
>  <ordered_residues>
NTINGSGSPHSKAQNQQT (peptide inserted in AAV capsid)

>  <assay_system>
brain

>  <result>
55.179 fold

$$$$
>  <ordered_residues>
KTERTSGSPHSKAQNQQT

>  <assay_system>
brain

>  <result>
117.374 fold

$$$$
>  <ordered_residues>
KAINGHDSPHKSEKNQQT

>  <assay_system>
brain

>  <result>
26.868 fold

$$$$

From here, focus on the item given below.
INPUT: Report Fold Enrichment relative to AAV9, Brain (Mouse) for "KTVNGHDSPHKSGQNHLT" please.
OUTPUT: 16.096 fold

* * *

test system: brains, heart, liver, muscle, and DRG of the NHPs; experiment: Maturation of TTM-001 and TTM-002 capsids, NGS enrichment in NHP tissues; type: in vivo; details: NGS fold-enrichment of matured AAV capsid variants; NHP brain, RNA; relative to AAV9 control
quantity_kind: Fold Enrichment relative to AAV9, Brain (NHP) (fold)
I only need the number, in fold, no unit after it.

>  <ordered_residues>
KTINGSGSPHSKAQYRAT

>  <value_unit>
fold

>  <result>
51.008

$$$$

INPUT: Report Fold Enrichment relative to AAV9, Brain (NHP) for "KTINGSGSPHSKAQDRQS" please.
OUTPUT: 55.137

INPUT: Report Fold Enrichment relative to AAV9, Brain (NHP) for "KTINGSGSPHSKAQVPAT" please.
OUTPUT: 54.475

* * *

system: brains, heart, liver, muscle, and DRG of the NHPs; experiment: Maturation of TTM-001 and TTM-002 capsids, NGS enrichment in NHP tissues; assay type: in vivo; details: NGS fold-enrichment, heart of NHPs, relative to AAV9 control
quantity_kind: Fold Enrichment relative to AAV9, Heart (NHP) (fold)
I only need the number, in fold, no unit after it.

Below are worked cases with known answers.
>  <ordered_residues>
KTENVSGSPHSKAQNQQT

>  <result>
0.000

$$$$
>  <ordered_residues>
KTVNGSGSPHSKAPNQHT

>  <result>
0.109

$$$$
>  <ordered_residues>
KTINGNGSPHSKAQNPLT

>  <result>
0.000

$$$$

INPUT: Report Fold Enrichment relative to AAV9, Heart (NHP) for "KTINGSGSPHSKAQAPAT" please.
OUTPUT: 0.169

INPUT: Report Fold Enrichment relative to AAV9, Heart (NHP) for "KTEKMSGSPHSKAQNQQT" please.
OUTPUT: 0.000

INPUT: Report Fold Enrichment relative to AAV9, Heart (NHP) for "KTINGSGSPHSKAQAPST" please.
OUTPUT: 0.005

INPUT: Report Fold Enrichment relative to AAV9, Heart (NHP) for "KTINGGGSPHSKAQNPPT" please.
OUTPUT: 0.082
